assay-system: Vasopressin V1b receptor (Homo sapiens)
Sequence (P47901 whole entry): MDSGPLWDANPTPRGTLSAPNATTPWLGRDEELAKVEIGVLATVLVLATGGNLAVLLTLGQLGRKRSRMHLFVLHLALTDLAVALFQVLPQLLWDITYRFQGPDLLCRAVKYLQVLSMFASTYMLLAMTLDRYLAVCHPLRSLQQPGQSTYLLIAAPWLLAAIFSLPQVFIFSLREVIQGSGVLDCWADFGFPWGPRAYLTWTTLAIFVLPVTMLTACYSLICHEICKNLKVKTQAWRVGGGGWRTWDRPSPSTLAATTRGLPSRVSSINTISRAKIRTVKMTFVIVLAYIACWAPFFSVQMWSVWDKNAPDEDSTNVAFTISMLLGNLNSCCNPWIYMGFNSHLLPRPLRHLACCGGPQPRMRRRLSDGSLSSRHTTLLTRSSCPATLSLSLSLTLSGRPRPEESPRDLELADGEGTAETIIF
measurement-notes: Agonist activity at recombinant human vasopressin V1b receptor expressed in Flp-In-293 cells by luciferase reporter gene assay
Type: functional, cell-based
particulars: read-out: EC50
pEC50: −log10 of the molar value. Numbered stars: 1 amine (or outer) side, 2 acyl side, 3 side chain; on linkers, the order of the positions; unused ones are H or OH. Bridge positions count the residues as written; N and C are the ends. Square brackets hold non-standard residues; d marks the D form. Peptide text beside a SMILES is read from it. X5 = CC(C)CCNCCC[C@H](N[*:1])C(=O)[*:2]; Cha = N[C@@H](CC1CCCCC1)C(=O)O; Orn = NCCC[C@H](N)C(=O)O; Dab = NCC[C@H](N)C(=O)O
# pEC50 annotations
quantity: pEC50

1) CC[C@H](C)[C@@H]1NC(=O)[C@H](CC2CCCCC2)NC(=O)[C@@H](N)CSSC[C@@H](C(=O)N2CCC[C@H]2C(=O)N[C@@H](CCN)C(=O)NCC(N)=O)NC(=O)[C@H](CC(N)=O)NC(=O)[C@H](CCC(N)=O)NC1=O (H-C[Cha]IQNCP[Dab]G-NH2; disulfide 1-6) : 8.10
2) NCCC[C@H](NC(=O)[C@@H]1CCCN1C(=O)[C@@H]1CSSC[C@H](N)C(=O)N[C@@H](Cc2ccccc2)C(=O)N[C@@H](Cc2ccccc2)C(=O)N[C@@H](CCC(N)=O)C(=O)N[C@@H](CC(N)=O)C(=O)N1)C(=O)NCC(N)=O (H-CFFQNCP[Orn]G-NH2; disulfide 1-6) : 7.82
3) CC[C@H](C)[C@@H]1NC(=O)[C@H](Cc2ccccc2)NC(=O)[C@@H](N)CSSC[C@@H](C(=O)N2CCC[C@H]2C(=O)N[C@@H](CCCNCCC(C)C)C(=O)NCC(N)=O)NC(=O)[C@H](CC(N)=O)NC(=O)[C@H](CCC(N)=O)NC1=O (H-CFIQNCP[X5]G-NH2; disulfide 1-6) : 7.00

* * *

assay-system: Vasopressin V1a receptor (Rattus norvegicus)
Sequence (P30560 whole entry): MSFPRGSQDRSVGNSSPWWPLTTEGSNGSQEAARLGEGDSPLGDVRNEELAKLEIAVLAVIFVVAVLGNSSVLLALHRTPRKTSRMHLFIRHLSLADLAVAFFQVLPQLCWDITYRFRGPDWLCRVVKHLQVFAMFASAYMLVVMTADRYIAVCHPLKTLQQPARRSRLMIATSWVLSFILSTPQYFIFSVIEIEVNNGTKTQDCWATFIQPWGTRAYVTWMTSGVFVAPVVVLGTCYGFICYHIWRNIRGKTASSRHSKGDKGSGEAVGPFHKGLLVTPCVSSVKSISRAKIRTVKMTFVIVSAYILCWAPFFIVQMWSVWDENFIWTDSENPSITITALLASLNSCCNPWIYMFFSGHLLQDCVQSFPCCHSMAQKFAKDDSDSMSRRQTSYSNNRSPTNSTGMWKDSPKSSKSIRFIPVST
measurement-notes: Agonist activity at recombinant rat vasopressin V1a receptor expressed in HEK293 cells by luciferase reporter gene assay
Format: functional, cell-based
particulars: read-out: EC50
pEC50: −log10 of the molar value. Numbered stars: 1 amine (or outer) side, 2 acyl side, 3 side chain; on linkers, the order of the positions; unused ones are H or OH. Bridge positions count the residues as written; N and C are the ends. Square brackets hold non-standard residues; d marks the D form. Peptide text beside a SMILES is read from it. Orn(Me) = CN(CCC[C@H](N[*:1])C(=O)[*:2])[*:3]; Orn(iPr) = CC(C)NCCC[C@H](N)C(=O)O; Aad = N[C@@H](CCCC(=O)O)C(=O)O; Cha = N[C@@H](CC1CCCCC1)C(=O)O; Orn = NCCC[C@H](N)C(=O)O
quantity: pEC50

1. CC[C@H](C)[C@@H]1NC(=O)[C@H](CC2CCCCC2)NC(=O)[C@@H](N)CSSC[C@@H](C(=O)N2CCC[C@H]2C(=O)N[C@@H](CCCNC(C)C)C(=O)NCC(N)=O)NC(=O)[C@H](CC(N)=O)NC(=O)[C@H](CC(N)=O)NC1=O (H-C[Cha]INNCP[Orn(iPr)]G-NH2; disulfide 1-6) : 7.24
2. CC[C@H](C)[C@@H]1NC(=O)[C@H](Cc2ccccc2)NC(=O)[C@@H](N)CSSC[C@@H](C(=O)N2CCC[C@H]2C(=O)N[C@@H](CCCNC(C)C)C(=O)NCC(N)=O)NC(=O)[C@H](CC(N)=O)NC(=O)[C@H](CCCC(N)=O)NC1=O [SELEPRESSIN] : 9.26
3. CC[C@H](C)[C@@H]1NC(=O)[C@H](Cc2ccccc2)NC(=O)[C@@H](N)CSSC[C@@H](C(=O)N2CCC[C@H]2C(=O)N[C@@H](CCCN)C(=O)NCC(N)=O)NC(=O)[C@H](CC(N)=O)NC(=O)[C@H](CCCC(N)=O)NC1=O (H-CFI[Aad](NH2)NCP[Orn]G-NH2; disulfide 1-6) : 9.47
4. CC[C@H](C)[C@@H]1NC(=O)[C@H](Cc2ccccc2)NC(=O)[C@@H](N)CSSC[C@@H](C(=O)N2CCC[C@H]2C(=O)N[C@@H](CCCNC)C(=O)NCC(N)=O)NC(=O)[C@H](CC(N)=O)NC(=O)[C@H](CCC(N)=O)NC1=O (H-CFIQNCP[Orn(Me)]G-NH2; disulfide 1-6) : 9.54
